system: carrageenan foot edema; assay: Rat Carrageenan Foot Pad Edema Test; format: in vivo, rat (Male Sprague-Dawley); conditions: *@ 10 mg/kg, oral, 3 hours after carrageenan, read-out: RAT PAW EDEMA % Inhibition

compound: CC(C)(C)Nc1nc(-c2ccc(F)cc2)c(-c2ccc(S(C)(=O)=O)cc2)s1 [Example 51]
measured_on: carrageenan foot edema
inhibition at 10 mg/kg: 14%

compound: CS(=O)(=O)c1ccc(-c2sc(Nc3cc(Cl)cc(Cl)c3)nc2-c2ccc(F)cc2)cc1 [Example 52]
measured_on: carrageenan foot edema
inhibition at 10 mg/kg: 7%

compound: CNc1nc(-c2ccc(F)cc2)c(-c2ccc(S(C)(=O)=O)cc2)s1 [Example 48]
measured_on: carrageenan foot edema
inhibition at 10 mg/kg: 15%

compound: CCNc1nc(-c2ccc(F)cc2)c(-c2ccc(S(C)(=O)=O)cc2)s1 [Example 50]
measured_on: carrageenan foot edema
inhibition at 10 mg/kg: 11%

compound: COc1ccc(-c2nc(-c3ccc(F)cc3)c(-c3ccc(S(C)(=O)=O)cc3)s2)cc1 [Example 49]
measured_on: carrageenan foot edema
inhibition at 10 mg/kg: 6%

compound: CCCCCCNc1nc(-c2ccc(F)cc2)c(-c2ccc(S(C)(=O)=O)cc2)s1 [Example 46]
measured_on: carrageenan foot edema
inhibition at 10 mg/kg: 25%

compound: CS(=O)(=O)c1ccc(-c2sc(-c3ccccc3)nc2-c2ccc(F)cc2)cc1 [Example 45]
measured_on: carrageenan foot edema
inhibition at 10 mg/kg: 19%

compound: CCCNc1nc(-c2ccc(F)cc2)c(-c2ccc(S(C)(=O)=O)cc2)s1 [Example 31]
measured_on: carrageenan foot edema
inhibition at 10 mg/kg: 27.5%

----------
Measured pIC50, listed per entry for reference.
target: human COX-I (Homo sapiens); assay: COX I activity in vitro, human (PGE2 by ELISA)
pIC50: −log10 of the molar value.

compound: CS(=O)(=O)c1ccc(-c2sc(COc3cc(Cl)cc(Cl)c3)nc2-c2ccc(F)cc2)cc1
pIC50: < 4.00
--
compound: CS(=O)(=O)c1ccc(-c2nc(C(F)(F)F)sc2-c2ccc(F)cc2)cc1
pIC50: < 4.00
--
compound: CS(=O)(=O)c1ccc(-c2sc(-c3ccc(Br)s3)nc2-c2ccc(F)cc2)cc1
pIC50: 5.59
--
compound: CS(=O)(=O)c1ccc(-c2sc(COc3ccccc3Cl)nc2-c2ccc(F)cc2)cc1
pIC50: < 4.00
--
compound: CS(=O)(=O)c1ccc(-c2sc(C(Br)S(=O)(=O)c3cccs3)nc2-c2ccc(F)cc2)cc1 (centres unmarked)
pIC50: < 4.00
--
compound: CS(=O)(=O)c1ccc(-c2sc(COc3cccc(Cl)c3)nc2-c2ccccc2F)cc1
pIC50: < 4.00
--
compound: COc1ccc(OCc2nc(-c3ccc(F)cc3)c(-c3ccc(S(C)(=O)=O)cc3)s2)cc1
pIC50: < 4.00
--
compound: COc1ccc(-c2nc(-c3ccccc3Cl)sc2-c2ccc(S(C)(=O)=O)cc2)cc1
pIC50: < 4.00

----------
Measured IC50, listed per entry for reference.
biological target: human COX-I (Homo sapiens, UniProt P23219); assay: COX I activity in vitro, human (PGE2 by ELISA)
Sequence (P23219 24-599): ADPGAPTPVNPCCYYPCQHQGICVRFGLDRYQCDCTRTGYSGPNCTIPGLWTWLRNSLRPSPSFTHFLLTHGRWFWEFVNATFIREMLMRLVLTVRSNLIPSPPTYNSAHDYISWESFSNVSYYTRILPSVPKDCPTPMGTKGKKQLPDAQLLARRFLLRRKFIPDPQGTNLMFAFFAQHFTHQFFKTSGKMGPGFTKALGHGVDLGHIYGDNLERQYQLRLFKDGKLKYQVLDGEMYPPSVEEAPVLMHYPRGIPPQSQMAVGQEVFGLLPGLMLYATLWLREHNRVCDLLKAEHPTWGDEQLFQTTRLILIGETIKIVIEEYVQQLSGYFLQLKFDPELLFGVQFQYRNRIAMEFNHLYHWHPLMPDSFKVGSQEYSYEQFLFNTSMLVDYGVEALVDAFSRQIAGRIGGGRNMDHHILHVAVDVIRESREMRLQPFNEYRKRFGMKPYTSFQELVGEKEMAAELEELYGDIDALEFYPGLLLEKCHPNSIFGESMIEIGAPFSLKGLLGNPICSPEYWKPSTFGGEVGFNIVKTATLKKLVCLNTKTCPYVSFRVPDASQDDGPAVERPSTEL
test_readout: IC50

compound: NS(=O)(=O)c1ccc(-c2sc(COc3cc(Cl)cc(Cl)c3)nc2-c2ccc(F)cc2)cc1 [Example 34]
test_readout: IC50
result: < 0.1 µM

compound: CS(=O)(=O)c1ccc(-c2sc(-c3ccccc3Cl)nc2-c2ccc(Cl)cc2)cc1 [Example 10]
test_readout: IC50
result: > 100 µM

compound: CS(=O)(=O)c1ccc(-c2sc(-c3ccccc3Cl)nc2-c2ccc(Br)cc2)cc1 [Example 40]
test_readout: IC50
result: > 100 µM

compound: CS(=O)(=O)c1ccc(-c2sc(-c3c(F)c(F)c(F)c(F)c3F)nc2-c2ccc(F)cc2)cc1 [Example 57]
test_readout: IC50
result: > 100 µM

compound: NS(=O)(=O)c1ccc(-c2sc(-c3ccccc3Cl)nc2-c2ccc(F)cc2)cc1 [Example 32]
test_readout: IC50
result: 0.7 µM

compound: Cc1ccccc1-c1nc(-c2ccccc2Cl)sc1-c1ccc(S(C)(=O)=O)cc1 [Example 5]
test_readout: IC50
result: > 100 µM

compound: CS(=O)(=O)c1ccc(-c2sc(-c3ccccc3Cl)nc2-c2ccccc2Cl)cc1 [Example 9]
test_readout: IC50
result: > 100 µM

compound: Cc1ccc(-c2nc(-c3ccccc3Cl)sc2-c2ccc(S(C)(=O)=O)cc2)cc1 [Example 15]
test_readout: IC50
result: > 100 µM

compound: CS(=O)(=O)c1ccc(-c2sc(COc3ccc(Cl)cc3)nc2-c2ccc(F)cc2)cc1 [Example 1]
test_readout: IC50
result: > 10 µM

compound: CS(=O)(=O)c1ccc(-c2sc(-c3ccc(F)c(Cl)c3)nc2-c2ccc(F)cc2)cc1 [Example 12]
test_readout: IC50
result: > 10 µM

compound: CS(=O)(=O)c1ccc(-c2sc(C(F)(F)F)nc2-c2ccc(F)cc2)cc1 [Example 23]
test_readout: IC50
result: 1.1 µM

----------
Test system murine COX-II (Mus musculus, UniProt Q05769), IC50 listed for each of the compounds.

compound: CS(=O)(=O)c1ccc(-c2sc(-c3ccc(F)c(Cl)c3)nc2-c2ccc(F)cc2)cc1 [Example 12]
IC50: < 100 nM
//
compound: CS(=O)(=O)c1ccc(-c2nc(C(F)(F)F)sc2-c2ccc(F)cc2)cc1 [Example 56]
IC50: < 100 nM
//
compound: CS(=O)(=O)c1ccc(-c2sc(CS(=O)(=O)c3cccs3)nc2-c2ccc(F)cc2)cc1 [Example 13]
IC50: 1200 nM
//
compound: CCOC(=O)c1ccc(Nc2nc(-c3ccc(F)cc3)c(-c3ccc(S(C)(=O)=O)cc3)s2)cc1 [Example 55]
IC50: 3500 nM
//
compound: CS(=O)(=O)c1ccc(-c2scnc2-c2ccc(F)cc2)cc1 [Example 22]
IC50: 11200 nM
//
compound: Cc1nc(-c2nc(-c3ccc(F)cc3)c(-c3ccc(S(C)(=O)=O)cc3)s2)cs1 [Example 39]
IC50: 300 nM
//
compound: CS(=O)(=O)c1ccc(-c2sc(CCCc3ccc(Br)cc3)nc2-c2ccc(F)cc2)cc1 [Example 21]
IC50: < 100 nM
//
compound: CCCCCCNc1nc(-c2ccc(F)cc2)c(-c2ccc(S(C)(=O)=O)cc2)s1 [Example 46]
IC50: < 100 nM
//
compound: CCNc1nc(-c2ccc(F)cc2)c(-c2ccc(S(C)(=O)=O)cc2)s1 [Example 50]
IC50: 300 nM
//
compound: COc1ccc(-c2nc(-c3ccc(F)cc3)c(-c3ccc(S(C)(=O)=O)cc3)s2)cc1 [Example 49]
IC50: 300 nM
//
compound: Cc1nc(-c2ccc(F)cc2)c(-c2ccc(S(C)(=O)=O)cc2)s1 [Example 28]
IC50: < 100 nM
//
compound: CS(=O)(=O)c1ccc(-c2sc(Nc3cc(Cl)cc(Cl)c3)nc2-c2ccc(F)cc2)cc1 [Example 52]
IC50: 500 nM
//
compound: CS(=O)(=O)c1ccc(-c2sc(-c3ccccc3Cl)nc2-c2ccc(F)cc2)cc1 [Example 16]
IC50: < 100 nM
//
compound: CS(=O)(=O)c1ccc(-c2sc(-c3cccs3)nc2-c2ccc(F)cc2)cc1 [Example 24]
IC50: < 100 nM
//
compound: CS(=O)(=O)c1ccc(-c2sc(CCCc3ccccc3)nc2-c2ccc(F)cc2)cc1 [Example 43]
IC50: 1300 nM
//
compound: CNc1nc(-c2ccc(F)cc2)c(-c2ccc(S(C)(=O)=O)cc2)s1 [Example 48]
IC50: 300 nM
//
compound: CC(C)(C)c1nc(-c2ccc(F)cc2)c(-c2ccc(S(C)(=O)=O)cc2)s1 [Example 18]
IC50: 150 nM
//
compound: CC(C)(C)Nc1nc(-c2ccc(F)cc2)c(-c2ccc(S(C)(=O)=O)cc2)s1 [Example 51]
IC50: 300 nM
//
compound: CS(=O)(=O)c1ccc(-c2sc(-c3ccccc3Cl)nc2-c2ccc(F)cc2F)cc1 [Example 4]
IC50: < 100 nM

----------
Molecular target: UniProt:P22437
Sequence (P22437 27-602): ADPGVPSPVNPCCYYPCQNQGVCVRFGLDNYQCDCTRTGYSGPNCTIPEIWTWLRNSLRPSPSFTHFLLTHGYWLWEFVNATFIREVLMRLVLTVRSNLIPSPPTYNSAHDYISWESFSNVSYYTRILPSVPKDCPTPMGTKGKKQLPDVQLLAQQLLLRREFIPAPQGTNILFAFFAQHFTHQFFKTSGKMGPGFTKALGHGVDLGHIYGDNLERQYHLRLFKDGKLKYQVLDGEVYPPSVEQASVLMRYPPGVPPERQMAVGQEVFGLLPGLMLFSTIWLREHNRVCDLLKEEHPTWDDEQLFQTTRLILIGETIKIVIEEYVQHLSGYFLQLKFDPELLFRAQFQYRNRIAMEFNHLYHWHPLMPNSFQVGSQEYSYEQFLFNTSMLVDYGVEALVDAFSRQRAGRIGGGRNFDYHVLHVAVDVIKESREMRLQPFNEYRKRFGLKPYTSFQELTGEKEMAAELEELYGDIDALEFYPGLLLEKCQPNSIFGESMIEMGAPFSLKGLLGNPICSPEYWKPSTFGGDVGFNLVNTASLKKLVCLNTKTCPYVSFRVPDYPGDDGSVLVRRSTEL
Measured IC50, listed per entry for reference.
test_readout: IC50 (µM)

molecule: CS(=O)(=O)c1ccc(-c2sc(Cc3ccccc3)nc2-c2ccc(F)cc2)cc1
test_readout: IC50
op: =
number: 0.4

molecule: CS(=O)(=O)c1ccc(-c2sc(-c3ccc(F)c(Cl)c3)nc2-c2ccc(F)cc2)cc1
test_readout: IC50
op: =
number: 1.6

molecule: CC(C)(C)Nc1nc(-c2ccc(F)cc2)c(-c2ccc(S(C)(=O)=O)cc2)s1
test_readout: IC50
op: =
number: 11.9

molecule: CS(=O)(=O)c1ccc(-c2sc(-c3ccccc3Cl)nc2-c2ccc(F)cc2)cc1
test_readout: IC50
op: >
number: 10

molecule: CS(=O)(=O)c1ccc(-c2sc(-c3cccs3)nc2-c2ccc(F)cc2)cc1
test_readout: IC50
op: >
number: 10

molecule: COc1ccc(-c2nc(-c3ccc(F)cc3)c(-c3ccc(S(C)(=O)=O)cc3)s2)cc1
test_readout: IC50
op: >
number: 10

molecule: CCCNc1nc(-c2ccc(F)cc2)c(-c2ccc(S(C)(=O)=O)cc2)s1
test_readout: IC50
op: >
number: 10

molecule: CS(=O)(=O)c1ccc(-c2sc(Nc3ccc(C#N)cc3)nc2-c2ccc(F)cc2)cc1
test_readout: IC50
op: =
number: 0.2

molecule: Cc1nc(-c2ccc(F)cc2)c(-c2ccc(S(C)(=O)=O)cc2)s1
test_readout: IC50
op: >
number: 10

molecule: CCNc1nc(-c2ccc(F)cc2)c(-c2ccc(S(C)(=O)=O)cc2)s1
test_readout: IC50
op: >
number: 10

molecule: CS(=O)(=O)c1ccc(-c2sc(-c3c(F)c(F)c(F)c(F)c3F)nc2-c2ccc(F)cc2)cc1
test_readout: IC50
op: =
number: 4.9

molecule: Cc1nc(-c2ccc(S(C)(=O)=O)cc2)c(-c2ccc(F)cc2)s1
test_readout: IC50
op: >
number: 10

molecule: CS(=O)(=O)c1ccc(-c2sc(NCc3ccccc3)nc2-c2ccc(F)cc2)cc1
test_readout: IC50
op: =
number: 0.5

molecule: CS(=O)(=O)c1ccc(-c2sc(-c3ccccc3Cl)nc2-c2ccccc2F)cc1
test_readout: IC50
op: >
number: 100

molecule: CCCCCCNc1nc(-c2ccc(F)cc2)c(-c2ccc(S(C)(=O)=O)cc2)s1
test_readout: IC50
op: =
number: 1.4

molecule: CS(=O)(=O)c1ccc(-c2sc(-c3ccccc3Cl)nc2-c2ccc(F)cc2F)cc1
test_readout: IC50
op: =
number: 6.2

molecule: CS(=O)(=O)c1ccc(-c2sc(C(Br)S(=O)(=O)c3cccs3)nc2-c2ccc(F)cc2)cc1 (centres unmarked)
test_readout: IC50
op: =
number: 39.8

molecule: CC(C)(C)c1nc(-c2ccc(F)cc2)c(-c2ccc(S(C)(=O)=O)cc2)s1
test_readout: IC50
op: =
number: 5.4

molecule: CNc1nc(-c2ccc(F)cc2)c(-c2ccc(S(C)(=O)=O)cc2)s1
test_readout: IC50
op: >
number: 10

molecule: CS(=O)(=O)c1ccc(-c2sc(COc3ccc(Cl)cc3)nc2-c2ccc(F)cc2)cc1
test_readout: IC50
op: >
number: 100
